Listed next: entries and their corresponding protein stability index.
B1: KRT18 (parent)
chain: RAQYDELARKNREELDKYWSQQIE

variants of: B1; test: protein stability index of a GFP-peptide fusion (GPS, HEK-293T) (PSI 1-6); higher = more stable; conditions: c terminus: a fixed tail appended;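 further: lentivirally expressed fusions sorted by FACS into six bins by GFP to DsRed ratio, PSI derived from sequencing read proportions per bin multiplied by bin number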
Answer as a number with no unit attached.

Guide cases for protein stability index, answers given:
Q3W	2.07
Q22N	3.31
I23M	2.28
K17D	4.21
E14L	2.97
E13P	2.99
D5G	3.09
Q21W	3.28
R9D	4.4
A8H	2.17

Param item = K10N ; retrieve measured protein stability index.
3.79

Param item = W19G ; retrieve measured protein stability index.
5.07

Param item = A2Q ; retrieve measured protein stability index.
3.07

Param item = Y4K ; retrieve measured protein stability index.
3.46

Param item = S20A ; retrieve measured protein stability index.
3.15
